Entries annotated with measured Z Repl 2
biological target: tau (Homo sapiens, UniProt P10636); experiment: MCE Phenols Library screening, tau biosensor cell seeding assay (AvZ); assay type: cell-based; conditions: Z score, replicate 2
Sequence (P10636 623-695 limits assumed): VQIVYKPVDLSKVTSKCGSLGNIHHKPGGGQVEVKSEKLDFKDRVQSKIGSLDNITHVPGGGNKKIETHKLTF
// no unit, no text: just the number

Request: Given the entry COc1ccc(C=O)cc1O , what Z Repl 2 was observed with tau (Homo sapiens, UniProt P10636)?
Result: -0.711

Request: // fetch tau (Homo sapiens, UniProt P10636) Z Repl 2 for COc1ccc(O)cc1
Result: 0.017

Request: Hello, I am looking for reported Z Repl 2 with tau (Homo sapiens, UniProt P10636) for COc1cc(O)c2c(=O)c3c(O[C@@H]4O[C@H](CO)[C@@H](O)[C@H](O)[C@H]4O)ccc(O)c3oc2c1 . Could you help?
Result: 0.052

Request: Provide the documented Z Repl 2 with tau (Homo sapiens, UniProt P10636) as the system for Cc1cc2c(C(C)C)c(O)c(O)c(C=O)c2c(O)c1-c1c(C)cc2c(C(C)C)c(O)c(O)c(C=O)c2c1O
Result: -0.607

Request: Z Repl 2, test system tau (Homo sapiens, UniProt P10636), entry O.O.O=c1c(O)c(-c2ccc(O)c(O)c2)oc2cc(O)cc(O)c12 [Quercetin (dihydrate)]
Result: -1.162

Request: Notebook entry, tau (Homo sapiens, UniProt P10636) assay: Z Repl 2 of COc1cc(O)c2c(c1)O[C@H](c1cc(O)cc(O)c1)CC2=O = ?
Result: -0.754

Request: Checklist item: Z Repl 2 tested on tau (Homo sapiens, UniProt P10636), entry Oc1cc(O)c2c(c1)O[C@@]1(c3ccc(O)c(O)c3)Oc3cc(O)c4c(c3[C@@H]2[C@H]1O)O[C@H](c1ccc(O)c(O)c1)[C@H](O)C4 , value?
Result: -0.919

Request: // fetch tau (Homo sapiens, UniProt P10636) Z Repl 2 for O=c1c(O[C@@H]2O[C@H](CO)[C@@H](O)[C@H](O)[C@H]2O[C@@H]2O[C@H](CO)[C@@H](O)[C@H](O)[C@H]2O)c(-c2ccc(O)c(O)c2)oc2cc(O)cc(O)c12 [Baimaside]
Result: 0.927

Request: Lab request: please report Z Repl 2 under test system tau (Homo sapiens, UniProt P10636) for O=C(/C=C/c1ccc(O)c(O)c1)O[C@@H]1C[C@](O)(C(=O)O)C[C@@H](O)[C@H]1O
Result: -0.247

Request: Kindly state the measured Z Repl 2 obtained for O=C1N[C@@H]2C(=C[C@H](O)[C@@H](O)[C@H]2O)c2cc3c(c(O)c21)OCO3 with tau (Homo sapiens, UniProt P10636).
Result: -0.234

Request: What reported Z Repl 2 corresponds to NC(Cc1cccc(O)c1)C(=O)O (racemic) on tau (Homo sapiens, UniProt P10636)?
Result: 1.982

Request: Missing value: Z Repl 2, tau (Homo sapiens, UniProt P10636), entry O=C1C[C@@H](c2ccc(O)cc2)Oc2cc(O[C@@H]3O[C@H](CO)[C@@H](O)[C@H](O)[C@H]3O)ccc21 . Fill in?
Result: -0.555

Request: # returns recorded Z Repl 2 (system: tau (Homo sapiens, UniProt P10636)) for COc1ccc(-c2cc(=O)c3c(O)c(OC)c(OC)c(OC)c3o2)cc1
Result: 0.967

Request: Recorded Z Repl 2 for C[C@H]1O[C@@H](O[C@H]2[C@H](Oc3c(-c4ccc(O)cc4)oc4cc(O)cc(O)c4c3=O)O[C@@H](CO)[C@H](O)[C@H]2O)[C@H](O)[C@@H](O)[C@@H]1O [Kaempferol-3-O-glucorhamnoside] with tau (Homo sapiens, UniProt P10636), please?
Result: -1.001

Request: // lookup Z Repl 2 | system=tau (Homo sapiens, UniProt P10636) | key= OCCc1ccc(O)cc1
Result: 0.294
